Target: Pyrophosphorylase (Sus scrofa)
Construct: 64 and 55 kDa bands; native about 125 kDa
Experiment: Specificity of pyrophosphorylase (forward direction)
Assay type: biochemical, pig
Details: sugar phosphate 5 mM, UT = 5 mM; GalNAc-1-P = 100
Decide by Relative Activity: equal to or exceeding 90% means 1, less means 0.

{"columns": ["molecular-string", "qualitative-label"],
 "data": [
  ["O=P(O)(O)O[C@H]1O[C@H](CO)[C@H](O)[C@H](O)[C@H]1O", 0],
  ["CC(=O)N[C@H]1[C@@H](OP(=O)(O)O)O[C@H](CO)[C@H](O)[C@@H]1O", 1],
  ["N[C@H]1[C@@H](OP(=O)(O)O)O[C@H](CO)[C@@H](O)[C@@H]1O", 0],
  ["O=P(O)(O)O[C@H]1O[C@H](CO)[C@@H](O)[C@H](O)[C@H]1O", 0]
]}

---

Molecular target: Pyrophosphorylase (Sus scrofa, UniProt F1S210)
Construct: 64 and 55 kDa bands; native about 125 kDa
Sequence (F1S210 1-505): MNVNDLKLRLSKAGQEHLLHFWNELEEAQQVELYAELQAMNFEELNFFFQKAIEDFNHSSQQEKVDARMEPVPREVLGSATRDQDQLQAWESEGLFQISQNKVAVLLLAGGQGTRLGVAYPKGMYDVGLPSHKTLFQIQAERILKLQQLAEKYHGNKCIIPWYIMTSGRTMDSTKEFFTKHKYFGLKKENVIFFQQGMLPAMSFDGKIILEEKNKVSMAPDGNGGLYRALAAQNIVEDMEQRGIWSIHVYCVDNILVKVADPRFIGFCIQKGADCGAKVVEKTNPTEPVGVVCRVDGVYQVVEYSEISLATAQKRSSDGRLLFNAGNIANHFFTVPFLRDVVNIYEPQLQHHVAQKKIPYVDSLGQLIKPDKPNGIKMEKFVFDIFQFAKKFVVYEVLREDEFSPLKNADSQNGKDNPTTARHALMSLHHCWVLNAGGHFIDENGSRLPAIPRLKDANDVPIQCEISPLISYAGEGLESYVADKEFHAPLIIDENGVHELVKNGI
Assay: Specificity of pyrophosphorylase (reverse direction)
Assay type: biochemical, pig
Conditions: 5 mM, PP = 1 mM
For each record, check the reported Activity: if it is below 10 nmol/min write yes (1), else write no (0).

{"columns": ["molecule", "qualitative-label"],
 "data": [
  ["O=C(O)[C@H]1O[C@H](OP(=O)(O)OP(=O)(O)OC[C@H]2O[C@@H](n3ccc(=O)[nH]c3=O)[C@H](O)[C@@H]2O)[C@H](O)[C@@H](O)[C@H]1O [UDP-GalCOOH]", "yes (1)"],
  ["O=C(O)[C@H]1O[C@H](OP(=O)(O)OP(=O)(O)OC[C@H]2O[C@@H](n3ccc(=O)[nH]c3=O)[C@H](O)[C@@H]2O)[C@H](O)[C@@H](O)[C@@H]1O [UDP-GlcCOOH, UDP-glucuronic acid]", "yes (1)"],
  ["CC(=O)NC1C(OP(=O)(O)OP(=O)(O)OCC2OC(n3ccc(=O)[nH]c3=O)C(O)C2O)OC(CO)C(O)C1O (centres unmarked) [UDP-GlcNAc, UDP-N-acetylglucosamine]", "no (0)"],
  ["CC(=O)N[C@H]1[C@@H](OP(=O)(O)OP(=O)(O)OC[C@H]2O[C@@H](n3ccc(=O)[nH]c3=O)[C@H](O)[C@@H]2O)O[C@H](CO)[C@H](O)[C@@H]1O [UDP-GalNAc, UDP-N-acetylgalactosamine]", "no (0)"],
  ["Nc1ncnc2c1ncn2[C@@H]1O[C@H](COP(=O)(O)OP(=O)(O)O[C@H]2O[C@H](CO)[C@@H](O)[C@H](O)[C@H]2O)[C@@H](O)[C@H]1O [ADP-Glc]", "yes (1)"]
]}

---

Target: Pyrophosphorylase (Sus scrofa, UniProt F1S210)
Construct: 64 and 55 kDa bands; native about 125 kDa
Assay: Specificity of pyrophosphorylase (reverse direction)
Format: biochemical, pig
Conditions: 5 mM, PP = 1 mM; UDP-GalNAc = 100
Source text: When measured in the reverse direction, either a direct assay or an indirect assay could be used. […] The supernatant liquid from this wash was combined with the first supernatant liquid, and an aliquot was removed and counted, as a measure of the formation of GlcNAc-1-P. […]
Entries annotated with measured Relative Activity

{"columns": ["compound", "target-or-test-system", "Relative Activity, %"],
 "data": [
  ["O=C(O)[C@H]1O[C@H](OP(=O)(O)OP(=O)(O)OC[C@H]2O[C@@H](n3ccc(=O)[nH]c3=O)[C@H](O)[C@@H]2O)[C@H](O)[C@@H](O)[C@@H]1O [UDP-GlcCOOH, UDP-glucuronic acid]", "Pyrophosphorylase (Sus scrofa, UniProt F1S210)", 7],
  ["CC(=O)NC1C(OP(=O)(O)OP(=O)(O)OCC2OC(n3ccc(=O)[nH]c3=O)C(O)C2O)OC(CO)C(O)C1O (centres unmarked) [UDP-GlcNAc, UDP-N-acetylglucosamine]", "Pyrophosphorylase (Sus scrofa, UniProt F1S210)", 66],
  ["CC(=O)N[C@H]1[C@@H](OP(=O)(O)OP(=O)(O)OC[C@H]2O[C@@H](n3ccc(=O)[nH]c3=O)[C@H](O)[C@@H]2O)O[C@H](CO)[C@H](O)[C@@H]1O [UDP-GalNAc, UDP-N-acetylgalactosamine]", "Pyrophosphorylase (Sus scrofa, UniProt F1S210)", 100],
  ["O=C(O)[C@H]1O[C@H](OP(=O)(O)OP(=O)(O)OC[C@H]2O[C@@H](n3ccc(=O)[nH]c3=O)[C@H](O)[C@@H]2O)[C@H](O)[C@@H](O)[C@H]1O [UDP-GalCOOH]", "Pyrophosphorylase (Sus scrofa, UniProt F1S210)", 7],
  ["Nc1ncnc2c1ncn2[C@@H]1O[C@H](COP(=O)(O)OP(=O)(O)O[C@H]2O[C@H](CO)[C@@H](O)[C@H](O)[C@H]2O)[C@@H](O)[C@H]1O [ADP-Glc]", "Pyrophosphorylase (Sus scrofa, UniProt F1S210)", 3]
]}

---

Molecular target: Pyrophosphorylase (Sus scrofa)
Construct: 64 and 55 kDa bands; native about 125 kDa
Assay: Specificity of pyrophosphorylase (forward direction)
Assay type: biochemical, pig
Conditions: sugar phosphate 5 mM, UT = 5 mM

{"columns": ["compound", "target-or-test-system", "Activity, nmol/min"],
 "data": [
  ["N[C@H]1C(OP(=O)(O)O)O[C@H](CO)[C@H](O)[C@@H]1O (stereo partly drawn)", "Pyrophosphorylase (Sus scrofa)", 0],
  ["O=P(O)(O)O[C@H]1O[C@H](CO)[C@H](O)[C@H](O)[C@H]1O", "Pyrophosphorylase (Sus scrofa)", 0.14],
  ["O=P(O)(O)O[C@H]1O[C@H](CO)[C@@H](O)[C@H](O)[C@H]1O", "Pyrophosphorylase (Sus scrofa)", 0.20]
]}
